All values here come from paper PMC4336329.

biological target: human ether-à-go-go-related gene (hERG) potassium channel (human, UniProt Q12809); test: primary screen, population patch clamp on CHO cells stably expressing hERG; higher = less effect of the substance;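 note: peak tail current of the secondary pulse compared with the same well before compound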
Sequence (Q12809 whole entry, looked up): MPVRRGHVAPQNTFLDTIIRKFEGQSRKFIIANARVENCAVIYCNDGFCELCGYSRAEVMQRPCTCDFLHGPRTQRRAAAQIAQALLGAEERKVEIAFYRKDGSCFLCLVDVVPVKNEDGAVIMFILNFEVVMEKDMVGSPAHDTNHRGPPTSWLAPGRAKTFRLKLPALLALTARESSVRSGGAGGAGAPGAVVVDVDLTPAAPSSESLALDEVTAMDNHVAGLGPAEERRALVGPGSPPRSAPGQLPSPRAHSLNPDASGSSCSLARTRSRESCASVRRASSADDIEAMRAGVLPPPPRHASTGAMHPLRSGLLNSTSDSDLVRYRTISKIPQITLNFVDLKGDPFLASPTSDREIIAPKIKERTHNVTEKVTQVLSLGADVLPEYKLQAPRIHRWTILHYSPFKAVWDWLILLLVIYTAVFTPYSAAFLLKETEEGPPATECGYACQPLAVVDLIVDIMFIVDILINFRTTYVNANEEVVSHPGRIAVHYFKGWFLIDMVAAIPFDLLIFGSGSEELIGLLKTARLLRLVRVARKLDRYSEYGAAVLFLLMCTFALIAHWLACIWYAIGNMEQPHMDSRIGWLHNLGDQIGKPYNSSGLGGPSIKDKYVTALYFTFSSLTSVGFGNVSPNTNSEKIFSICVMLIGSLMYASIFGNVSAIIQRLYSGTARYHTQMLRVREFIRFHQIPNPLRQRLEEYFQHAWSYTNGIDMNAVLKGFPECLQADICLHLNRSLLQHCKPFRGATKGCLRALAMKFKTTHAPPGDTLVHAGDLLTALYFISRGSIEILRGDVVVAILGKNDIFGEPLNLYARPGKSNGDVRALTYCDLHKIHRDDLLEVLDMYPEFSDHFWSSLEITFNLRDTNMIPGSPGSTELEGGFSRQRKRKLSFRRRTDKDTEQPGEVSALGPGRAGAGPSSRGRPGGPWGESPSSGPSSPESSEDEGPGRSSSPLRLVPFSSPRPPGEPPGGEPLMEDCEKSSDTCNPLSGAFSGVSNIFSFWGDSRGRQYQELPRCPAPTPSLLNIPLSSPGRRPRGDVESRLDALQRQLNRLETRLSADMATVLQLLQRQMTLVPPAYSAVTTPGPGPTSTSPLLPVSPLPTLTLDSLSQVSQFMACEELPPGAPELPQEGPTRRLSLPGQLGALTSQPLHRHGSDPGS
Hit rate of the full screen: of about 310,000 compounds, about 14,000 (4.5%) showed an effect of 50% or more. The effect is printed as a negative number. The full list was thinned out, with strong results kept by preference.
Parameter threshold = -50%. Response is met when hERG current change (%, negative = inhibition) at 10uM meets or exceeds it, else not met.

- Compound: "COc1ccc(Oc2nnnn2-c2ccccc2)cc1"
  Qualitative Label: "met"
- Compound: "O=C(CN1CCN(S(=O)(=O)c2ccccc2)CC1)NC1CC1"
  Qualitative Label: "met"
- Compound: "N#Cc1ccc(S(=O)(=O)N2CCN(CC(=O)Nc3ccccc3C(=O)NC3CC3)CC2)cc1"
  Qualitative Label: "not met"

Is it the case that N#Cc1ccccc1S(=O)(=O)N1CCN(CC(=O)Nc2ccccc2C(=O)NC2CC2)CC1 has hERG current change (%, negative = inhibition) at 10uM reaching or exceeding -50%?
not met

Is it the case that CC(C#N)(NC(=O)CN1CCN(S(=O)(=O)c2ccccc2C#N)CC1)C1CC1 (stereo not shown) has hERG current change (%, negative = inhibition) at 10uM reaching or exceeding -50%?
met

Is it the case that c1ccc(-n2nnnc2Oc2ccc(-n3ccnc3)cc2)cc1 has hERG current change (%, negative = inhibition) at 10uM reaching or exceeding -50%?
not met

Is it the case that O=C(CN1CCN(S(=O)(=O)c2ccccc2)CC1)Nc1ccccc1C(=O)c1ccccc1 has hERG current change (%, negative = inhibition) at 10uM reaching or exceeding -50%?
met
